System: RXF 393 renal
TEST: NCI tumour cell line growth inhibition, 48 h
EXPERIMENTAL_ENDPOINT: TGI

>>> result("N#Cc1c(-c2ccccc2)/c(=C\\Nc2ccc(Cl)cc2)c(=O)n2c1nc1ccccc12")
"> 100 µM"
>>> result("O=c1c2c([nH]c3cc4c(cc13)OCO4)-c1ccccc1CC2")
"> 100 µM"
>>> result("Cc1cc(C)c2c(=O)n(CN3CC4Nc5ccccc5C4C3)sc2n1 (centres undefined)")
"40.4 µM"
>>> result("NC(=O)C(=O)N/N=C1/c2ccccc2CC1C1(O)C(=O)Nc2c(Cl)cc(Cl)cc21 (centres undefined)")
"> 100 µM"
>>> result("COC(=O)[C@@H](C)C[C@H](Cc1ccccc1)NC(=O)c1nc([C@@H](C[C@H](C(C)C)N(C)C(=O)[C@@H](NC(=O)[C@H]2CCCCN2C)C(C)C)OC(C)=O)sc1C")
"> 16.7 µM"
>>> result("COc1ccc(/C(=N/O)c2ccccc2-c2nc3ccccc3c(=O)n2-c2ccc(S(=O)(=O)Nc3ncccn3)cc2)cc1C")
"19.8 µM"
>>> result("C[C@@H](C(=O)Nc1ccc(Cl)cc1)C1CCC(c2ccnc3ccc(F)cc23)CC1 (some centres undefined)")
"26.7 µM"
>>> result("COP(=O)(O)/C=C/C(NC(=O)C(Cl)(Cl)Cl)c1ccccc1 (centres undefined)")
"> 100 µM"
>>> result("COC(=O)CCC(NC(=S)N/N=C(\\C)c1nccs1)C(=O)OC (centres undefined)")
"> 100 µM"
>>> result("CCC[C@H]1C(=O)N=C(N)N1C(=O)OCc1ccccc1")
"> 100 µM"
>>> result("CNS(=O)(=O)NN(C)S(=O)(=O)c1ccc(F)cc1")
"> 100 µM"
>>> result("COCOc1ccc(OC)cc1")
"> 100 µM"
>>> result("CCCC[C@H](NC(=O)[C@H]1CCCN1C)C(=O)N(C)[C@H](C[C@@H](OC(C)=O)c1nc(C(=O)N[C@@H](Cc2ccccc2)C[C@H](C)C(=O)OCC)cs1)C(C)C")
"11.3 µM"
>>> result("CN(CCCN)CCCNc1nc2ccccc2c2[nH]c3ccccc3c12")
"0.515 µM"
>>> result("C[N+](C)(C)CC(=O)N/N=C(/Cc1nc2c3c(ccc2[nH]c1=O)C(=O)c1ccccc1C3=O)C(=O)Nc1ccc(Cl)c(Cl)c1")
"> 100 µM"
>>> result("COc1ccc2c(c1)O/C(=C\\c1cccc(OCC(=O)Nc3nc4c(s3)CCCC4)c1)C2=O")
"4.48 µM"
>>> result("O=C1NCCCc2nonc21")
"> 100 µM"
>>> result("Cc1[c-]onc1C.Cc1[c-]onc1C.[Ag].[Ag].[NH-]S(=O)(=O)c1ccc(N=Nc2cc(N=Nc3ccc(S([NH-])(=O)=O)cc3)c3c(NC(=O)C(Cl)Cl)cccc3c2OC(=O)C(Cl)Cl)cc1")
"15.6 µM"
>>> result("COC(=O)c1ccccc1/C=C1/Cc2ccccc2C1=O")
"> 100 µM"
